Experiment: qHTS of small molecules that selectively kill Giardia lamblia: Hit Validation.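 Further: viability measured as ATP content by luminescence so killing lowers signal; potency means the concentration at half of the fitted maximal effect; trophozoites exposed to compounds for 48 h anaerobically at 37 °C; nearly all actives have a fitted effect of over 65% in size.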
Conditions: Giardia lamblia trophozoite viability, dose-response; series mostly up to 38.3 µM
Among all 1,300 compounds or so, about 1,000 (77%) were called active. About 7% were inconclusive and are not listed. The set was probably picked from earlier hits. The list shows a part of the results.
Readout type: Potency

CC(=O)c1ccc(NC(=O)COC(=O)c2ccccc2N=Nc2ccc(N(C)C)cc2)cc1: 3260 nM (active)
CN(C)c1ccc(N=Nc2ccccc2C(=O)O)cc1: 290 nM (active)
N#C/C(=C\c1ccc(O)c([N+](=O)[O-])c1)c1nc2ccccc2s1: 1830 nM (active)
O=[N+]([O-])c1ccc(-c2nc(C(Cl)Cl)c3ccccc3n2)cc1: 1300 nM (active)
COc1ccc(-c2nc(NCCCN(C)C)c3ccccc3n2)cc1: 818 nM (active)
O=[N+]([O-])c1ccc(COn2nnc3ccccc32)cc1: 1630 nM (active)
